Kindly supply the reported Kd values for the records listed here.
systemUnderTest: S. aureus TrmD (Staphylococcus aureus, UniProt Q2FZ43)
Construct: made in house; host or cells: E. coli BL21
Sequence (Q2FZ43 whole entry): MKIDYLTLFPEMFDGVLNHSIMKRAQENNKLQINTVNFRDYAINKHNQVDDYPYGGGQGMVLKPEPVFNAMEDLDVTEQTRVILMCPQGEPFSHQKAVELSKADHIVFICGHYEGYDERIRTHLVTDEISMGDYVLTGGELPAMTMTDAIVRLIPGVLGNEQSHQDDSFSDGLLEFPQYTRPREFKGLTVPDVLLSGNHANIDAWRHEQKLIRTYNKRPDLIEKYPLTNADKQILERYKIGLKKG
protocolText: Isothermal titration calorimetry (ITC) on recombinant S. aureus TrmD
Format: binding
Express your answer in µM, writing the number without its unit.

Prompt: Fill in: Kd of Oc1ncnc2scc(-c3ccccc3)c12 is ___
Completion: 19.8

Prompt: Fill in: Kd of NCc1ccc(CNC(=O)c2csc3nc[nH]c(=O)c23)cc1 is ___
Completion: 12.9

----------
systemUnderTest: S. aureus TrmD (Staphylococcus aureus)
Construct: made in house; host or cells: E. coli BL21
protocolText: Aptamer-based MTase enzyme inhibition assay
Assay type: biochemical
testContext: aptamer-based enzyme assay; read-out: IC50 S. aureus TrmD
Method: For the determination of S. aureus TrmD IC50-values, a split aptamer assay according to Nidoieva et al. was employed. The assay was performed in 40 mM Tris HCl, 100 mM NaCl, 10 mM MgCl2, 5% Glycerol, pH 7.5. […]
reportedEndpoint: pIC50
Please treat pIC50 as minus the base-10 logarithm of the molar concentration.

Prompt: Fill in: pIC50 of N#Cc1cccc(Cn2cc(-c3c[nH]c4nc[nH]c(=O)c34)nn2)c1 [Compound 8b] is ___
Completion: 5.49

Prompt: Fill in: pIC50 of O=c1[nH]cnc2[nH]cc(-c3cn(Cc4ccc5ncccc5c4)nn3)c12 [Compound 8d] is ___
Completion: 6.41

Prompt: Fill in: pIC50 of N[C@@H]1CCC[C@@H]1Cn1cc(-c2c[nH]c3nc[nH]c(=O)c23)nn1 [Compound 8e] is ___
Completion: 6.32

Prompt: Fill in: pIC50 of O=c1[nH]cnc2[nH]cc(-c3cn(CC4CCC5C(CC4)C5(F)F)nn3)c12 (stereo not shown) [Compound 8c] is ___
Completion: 6.15

----------
Kindly supply the reported inhibition at 1 µM values for the records listed here.
systemUnderTest: S. aureus TrmD (Staphylococcus aureus)
Construct: made in house; host or cells: E. coli BL21
protocolText: nanoSAR direct-to-biology FP displacement screening of crude triazoles
Format: binding
testContext: crude triazole at 1 μM, assuming full conversion; 500 nM TrmD, 10 nM tracer 4; read-out: % displaced tracer
Write the numeric value and append its unit.

Prompt: Fill in: inhibition at 1 µM of COC(=O)c1ccc(-n2cc(-c3c[nH]c4nc[nH]c(=O)c34)nn2)cc1 is ___
Completion: 11%

Prompt: Fill in: inhibition at 1 µM of O=c1[nH]cnc2[nH]cc(-c3cn(CCCN4CCOCC4)nn3)c12 is ___
Completion: 66%

Prompt: Fill in: inhibition at 1 µM of O=c1[nH]cnc2[nH]cc(-c3cn(CCCCCO)nn3)c12 is ___
Completion: 27%

Prompt: Fill in: inhibition at 1 µM of O=c1[nH]cnc2[nH]cc(-c3cn([C@H]4CCNC4)nn3)c12 is ___
Completion: 27%

Prompt: Fill in: inhibition at 1 µM of COC1([C@H](CO)n2cc(-c3c[nH]c4nc[nH]c(=O)c34)nn2)CCC1 is ___
Completion: 5%

Prompt: Fill in: inhibition at 1 µM of CC(C)(C)OC(=O)NC[C@@]1(Cn2cc(-c3c[nH]c4nc[nH]c(=O)c34)nn2)CC12CCC2 is ___
Completion: 23%

Prompt: Fill in: inhibition at 1 µM of O=c1[nH]cnc2[nH]cc(-c3cn(-c4cccc5cnccc45)nn3)c12 is ___
Completion: 16%

Prompt: Fill in: inhibition at 1 µM of Cc1nc2cc(-n3cc(-c4c[nH]c5nc[nH]c(=O)c45)nn3)ccc2[nH]1 is ___
Completion: 21%

----------
systemUnderTest: S. aureus TrmD (Staphylococcus aureus, UniProt Q2FZ43)
Construct: made in house; host or cells: E. coli BL21
protocolText: Fluorescence polarization (FP) assay, tracer 4, S. aureus TrmD
Assay type: binding
testContext: chromatographically purified compound; read-out: KD S. aureus TrmD (FP displacement assay)
reportedEndpoint: Kd (nM)
Express your answer in nM, writing the number without its unit.

Prompt: Fill in: Kd of O=c1[nH]cnc2[nH]cc(-c3cn(Cc4ccc5ncccc5c4)nn3)c12 is ___
Completion: 725

----------
systemUnderTest: S. aureus TrmD (Staphylococcus aureus, UniProt Q2FZ43)
Construct: made in house; host or cells: E. coli BL21
protocolText: nanoSAR direct-to-biology FP displacement screening of crude triazoles
Assay type: binding
testContext: crude triazole at 1 μM, assuming full conversion; 500 nM TrmD, 10 nM tracer 4; read-out: % displaced tracer
Output schema: class label derived from inhibition at 1 µM. Mapping: low: < 30%; medium: ≥ 30% and < 50%; high: ≥ 50%

Prompt: Class? Entry: COC(=O)c1cnoc1Cn1cc(-c2c[nH]c3nc[nH]c(=O)c23)nn1 [Compound 01D12]
Completion: medium

Prompt: Class? Entry: O=c1[nH]cnc2[nH]cc(-c3cn(C4CCOCC4)nn3)c12 [Compound 02B04, O=C1NC=NC=2NC=C(C=3N=NN(C3)C4CCOCC4)C12]
Completion: low

Prompt: Class? Entry: NCCCCn1cc(-c2c[nH]c3nc[nH]c(=O)c23)nn1 [Compound 02E04]
Completion: low

Prompt: Class? Entry: O=c1[nH]cnc2[nH]cc(-c3cn(-c4cccc(Cl)c4-c4nnn[nH]4)nn3)c12 [Compound 02G02]
Completion: low

Prompt: Class? Entry: Cc1nnc(Cn2cc(-c3c[nH]c4nc[nH]c(=O)c34)nn2)o1 [Compound 01C02]
Completion: low

Prompt: Class? Entry: O=c1[nH]cnc2[nH]cc(-c3cn(C[C@H](O)C(F)(F)F)nn3)c12 [Compound 03D12]
Completion: high

Prompt: Class? Entry: O=c1[nH]cnc2[nH]cc(-c3cn(-c4ccc(S(F)(F)(F)(F)F)cc4)nn3)c12 [Compound 03A04]
Completion: low

Prompt: Class? Entry: CS(=O)(=O)c1cc(Cn2cc(-c3c[nH]c4nc[nH]c(=O)c34)nn2)cc(C(F)(F)F)c1 [Compound 03A01]
Completion: high

Prompt: Class? Entry: O=c1[nH]cnc2[nH]cc(-c3cn(-c4ccnc(CO)c4)nn3)c12 [Compound 02D08]
Completion: low

Prompt: Class? Entry: Cc1cccc(CCn2cc(-c3c[nH]c4nc[nH]c(=O)c34)nn2)n1 [Compound 03H03]
Completion: low

Prompt: Class? Entry: Cc1nc(Cn2cc(-c3c[nH]c4nc[nH]c(=O)c34)nn2)cs1 [Compound 01F09]
Completion: high

Prompt: Class? Entry: CN1CC[C@@H](n2cc(-c3c[nH]c4nc[nH]c(=O)c34)nn2)C1=O [Compound 03E02]
Completion: low

Prompt: Class? Entry: O=c1[nH]cnc2[nH]cc(-c3cn(C[C@H](O)c4ccccc4)nn3)c12 [Compound 04F03]
Completion: high

Prompt: Class? Entry: CC(C)(C)n1cc(-c2c[nH]c3nc[nH]c(=O)c23)nn1 [Compound 03H11, O=C1NC=NC=2NC=C(C=3N=NN(C3)C(C)(C)C)C12]
Completion: low

Prompt: Class? Entry: O=c1[nH]cnc2[nH]cc(-c3cn(-c4ccccc4-c4ccccc4)nn3)c12 [Compound 01E12]
Completion: medium

Prompt: Class? Entry: N#CC1(Cn2cc(-c3c[nH]c4nc[nH]c(=O)c34)nn2)CCCCC1 [Compound 03E07]
Completion: high

Prompt: Class? Entry: O=c1[nH]cnc2[nH]cc(-c3cn(Cc4cccc5ccccc45)nn3)c12 [Compound 01F10]
Completion: high

Prompt: Class? Entry: CCNC(=O)Cn1cc(-c2c[nH]c3nc[nH]c(=O)c23)nn1 [Compound 01E09, O=C1NC=NC=2NC=C(C=3N=NN(C3)CC(=O)NCC)C12]
Completion: medium

Prompt: Class? Entry: O=c1[nH]cnc2[nH]cc(-c3cn(Cc4ccc(-n5cccn5)cc4)nn3)c12 [Compound 02E09]
Completion: high

Prompt: Class? Entry: O=c1[nH]cnc2[nH]cc(-c3cn(C[C@@H]4CC(F)(F)CO4)nn3)c12 [Compound 01A11]
Completion: medium

Prompt: Class? Entry: CCOc1ccc(-n2cc(-c3c[nH]c4nc[nH]c(=O)c34)nn2)cc1 [Compound 01D07]
Completion: low

Prompt: Class? Entry: COc1ccc(-n2cc(-c3c[nH]c4nc[nH]c(=O)c34)nn2)cc1OC [Compound 01E06]
Completion: low

Prompt: Class? Entry: O=c1[nH]cnc2[nH]cc(-c3cn(CCn4cccn4)nn3)c12 [Compound 01D09]
Completion: medium

Prompt: Class? Entry: CS(=O)(=O)NCCn1cc(-c2c[nH]c3nc[nH]c(=O)c23)nn1 [Compound 01F03]
Completion: high

Prompt: Class? Entry: NC(=O)c1csc(Cn2cc(-c3c[nH]c4nc[nH]c(=O)c34)nn2)n1 [Compound 02F07]
Completion: high

Prompt: Class? Entry: O=c1[nH]cnc2[nH]cc(-c3cn(-c4ccncc4)nn3)c12 [Compound 02C12, O=C1NC=NC=2NC=C(C=3N=NN(c4ccncc4)C3)C12]
Completion: low

Prompt: Class? Entry: NS(=O)(=O)c1ccccc1-n1cc(-c2c[nH]c3nc[nH]c(=O)c23)nn1 [Compound 01G01]
Completion: medium

Prompt: Class? Entry: COC(=O)c1cc(-n2cc(-c3c[nH]c4nc[nH]c(=O)c34)nn2)ccn1 [Compound 03F03]
Completion: low

Prompt: Class? Entry: C[C@H]1CCCC[C@]1(C)n1cc(-c2c[nH]c3nc[nH]c(=O)c23)nn1 [Compound 04D02]
Completion: low

Prompt: Class? Entry: C[C@@H](CN)n1cc(-c2c[nH]c3nc[nH]c(=O)c23)nn1 [Compound 03C02]
Completion: medium

Prompt: Class? Entry: O=c1[nH]cnc2[nH]cc(-c3cn(C[C@@H]4CCCC4(F)F)nn3)c12 [Compound 01F12]
Completion: high

Prompt: Class? Entry: N#CC1(Cn2cc(-c3c[nH]c4nc[nH]c(=O)c34)nn2)CCCC1 [Compound 01F01]
Completion: high
